Origin of measurements: patent US20250002524A1

This listing pairs compounds with measured Relative peak area Uncapped RNA.
# Target or test system: T7 RNA polymerase (Escherichia phage T7, UniProt P00573)
# Construct: purchased Thermo Fisher Scientific
# Sequence (P00573 whole entry): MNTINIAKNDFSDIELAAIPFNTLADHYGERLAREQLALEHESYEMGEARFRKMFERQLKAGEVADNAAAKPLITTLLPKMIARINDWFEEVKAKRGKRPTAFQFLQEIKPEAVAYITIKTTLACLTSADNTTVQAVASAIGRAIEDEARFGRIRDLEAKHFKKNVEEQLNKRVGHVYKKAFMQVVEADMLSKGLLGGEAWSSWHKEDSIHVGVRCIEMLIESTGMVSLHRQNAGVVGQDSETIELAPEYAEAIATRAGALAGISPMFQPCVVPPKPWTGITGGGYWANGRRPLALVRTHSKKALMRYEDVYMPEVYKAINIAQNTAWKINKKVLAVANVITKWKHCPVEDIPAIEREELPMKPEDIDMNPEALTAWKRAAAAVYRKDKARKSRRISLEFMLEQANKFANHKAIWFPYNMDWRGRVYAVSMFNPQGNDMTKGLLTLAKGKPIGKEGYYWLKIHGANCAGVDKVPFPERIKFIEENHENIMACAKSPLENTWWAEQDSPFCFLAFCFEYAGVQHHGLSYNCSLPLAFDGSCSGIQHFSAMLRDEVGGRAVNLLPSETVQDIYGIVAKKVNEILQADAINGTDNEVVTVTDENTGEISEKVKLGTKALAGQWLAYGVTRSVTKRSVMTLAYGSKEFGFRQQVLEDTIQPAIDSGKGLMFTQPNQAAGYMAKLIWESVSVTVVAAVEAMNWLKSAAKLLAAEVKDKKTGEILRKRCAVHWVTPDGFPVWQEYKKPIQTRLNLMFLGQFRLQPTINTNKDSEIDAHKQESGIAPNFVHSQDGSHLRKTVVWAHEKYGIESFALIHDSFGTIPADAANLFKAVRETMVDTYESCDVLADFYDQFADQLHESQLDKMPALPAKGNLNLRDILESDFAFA
# Type: biochemical
# Test conditions: Table Ex-8; mRNA capped with 15.23 mM cap0 analog, N1-Methyl-pseudouridine; purified with Monarch RNA cleanup kit or Qiagen RNeasy mini kit
Quantity: Relative peak area Uncapped RNA (%)

INSERT INTO results (compound, obs_value) VALUES
  ('C[n+]1cn(CC[S+]([O-])CCP(=O)(O)OP(=O)([O-])OP(=O)(O)OC[C@H]2O[C@@H](n3cnc4c(=O)[nH]c(N)nc43)[C@H](O)[C@@H]2O)c2nc(N)[nH]c(=O)c21 (some centres unmarked) [Phosphonate Variant 5]', 13.1),
  ('C[n+]1cn(CCCOP(=O)(O)OP(=O)([O-])OP(=O)(O)OC[C@H]2O[C@@H](n3cnc4c(=O)[nH]c(N)nc43)[C@H](O)[C@@H]2O)c2nc(N)[nH]c(=O)c21', 12.3),
  ('C[n+]1cn(CCS(=O)(=O)CCP(=O)(O)OP(=O)([O-])OP(=O)(O)OC[C@H]2O[C@@H](n3cnc4c(=O)[nH]c(N)nc43)[C@H](O)[C@@H]2O)c2nc(N)[nH]c(=O)c21 [Phosphonate Variant 6]', 14.9),
  ('C[n+]1cn(CCS(=O)(=O)CP(=O)(O)OP(=O)([O-])OP(=O)(O)OC[C@H]2O[C@@H](n3cnc4c(=O)[nH]c(N)nc43)[C@H](O)[C@@H]2O)c2nc(N)[nH]c(=O)c21 [Phosphonate Variant 12]', 12.2),
  ('C[n+]1cn(CCCS(=O)(=O)CCP(=O)(O)OP(=O)([O-])OP(=O)(O)OC[C@H]2O[C@@H](n3cnc4c(=O)[nH]c(N)nc43)[C@H](O)[C@@H]2O)c2nc(N)[nH]c(=O)c21 [Phosphonate Variant 9]', 15.7);
